Measured values drawn from ChEMBL document CHEMBL3808368 for this set.

Target: Glucose-dependent insulinotropic receptor (Homo sapiens)
Sequence (Q8TDV5 whole entry): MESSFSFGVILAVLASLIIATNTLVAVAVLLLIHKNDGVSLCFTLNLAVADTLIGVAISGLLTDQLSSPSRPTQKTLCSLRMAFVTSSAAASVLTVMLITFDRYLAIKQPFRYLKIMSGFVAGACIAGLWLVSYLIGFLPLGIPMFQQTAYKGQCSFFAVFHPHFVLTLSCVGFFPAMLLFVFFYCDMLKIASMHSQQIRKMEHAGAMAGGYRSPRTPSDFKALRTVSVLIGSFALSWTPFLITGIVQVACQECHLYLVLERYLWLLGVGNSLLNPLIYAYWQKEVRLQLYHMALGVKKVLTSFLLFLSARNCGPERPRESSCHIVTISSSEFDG
Test: Agonist activity at human GPR119 receptor expressed in CHOK1 cells assessed as increase in cellular cAMP levels after 30 mins by HTRF assay
Type: functional, cell-based, CHO-K1
endpoint: EC50 (nM)

[I] CCc1cnc(N2CCC(C(C)CCNc3cc4c(cn3)C(=O)CO4)CC2)nc1 (configuration not stated)
[II] CC(C)c1noc(N2CCC(CC(F)CNc3ccc4c(c3)C(=O)CC4)CC2)n1 (configuration not stated)
## Task Between the entries labeled I and II , whose measured EC50 is lower? Answer format: the label of the selected item.
## Result I
(I: 14 nM, II: 33 nM)

###

Assay: Solubility of the compound at pH 6.5
Format: physicochemical
Conditions: buffer
endpoint: solubility (µM)
A number alone suffices; assume µM.

## Task Entry under review: CC(C)c1noc(N2CCC(CC(F)CNc3ccc4c(c3)C(=O)CC4)CC2)n1 (stereo unspecified) . Reported solubility?
## Result 40.7

###

Assay: Plasma clearance in Wistar rat at 0.5 mg/kg, iv or 3 mg/kg, po administered through oral gavage by LC-MS-MS analysis
Assay type: ADME, organism-based
endpoint: clearance (mL/min/kg)
Answer format: numeric, mL/min/kg implied, no suffix.

## Task // lookup clearance for CC(C)c1noc(N2CCC(CC(F)CNc3ccc4c(c3)C(=O)CC4)CC2)n1 (stereo unspecified)
## Result 14.8

###

Molecular target: UniProt:Q7TQP3
Sequence (Q7TQP3 whole entry): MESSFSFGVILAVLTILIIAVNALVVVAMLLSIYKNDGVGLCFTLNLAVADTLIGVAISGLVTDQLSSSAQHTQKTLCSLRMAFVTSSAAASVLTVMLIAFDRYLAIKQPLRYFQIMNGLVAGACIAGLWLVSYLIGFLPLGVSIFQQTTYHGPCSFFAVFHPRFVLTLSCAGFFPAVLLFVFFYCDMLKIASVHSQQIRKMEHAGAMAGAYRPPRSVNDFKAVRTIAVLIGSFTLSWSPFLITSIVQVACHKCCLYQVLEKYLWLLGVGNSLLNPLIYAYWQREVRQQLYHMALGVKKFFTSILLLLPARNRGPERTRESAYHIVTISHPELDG
Assay: Agonist activity at mouse GPR119 receptor cotransformed in Saccharomyces cerevisiae cells after 4 hrs by fluorescent Fus1p-LacZ reporter gene assay
endpoint: EC50 (µM)
Dear colleague, please return just the value in µM, with no unit written.

## Task For the compound CCCCCCCC/C=C\CCCCCCCC(=O)NCCO [OLEOYLETHANOLAMIDE] , what EC50 is on record?
## Result 2.9

###

Assay: Oral bioavailability in Wistar rat at 3 mg/kg administered through oral gavage by LC-MS-MS analysis
Format: ADME, organism-based
Conditions: in vivo
endpoint: bioavailability (%)
I only need the number, in %, no unit after it.

## Task Need bioavailability of CC(C)c1noc(N2CCC(CC(F)CNc3ccc4c(c3)C(=O)CC4)CC2)n1 (stereo unspecified) , thanks.
## Result 58
